B1: PTPRD (parent)
chain: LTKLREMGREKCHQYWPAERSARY

variants of: B1; assay: protein stability index of a GFP-peptide fusion (GPS, HEK-293T) (PSI 1-6); higher = more stable; details: c terminus: a fixed tail appended;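 also: lentivirally expressed fusions sorted by FACS into six bins by GFP to DsRed ratio, PSI derived from sequencing read proportions per bin multiplied by bin number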

- Mutant id: "R5K"
  protein stability index: 2.29
- Mutant id: "K11E"
  protein stability index: 3.17
- Mutant id: "R20N"
  protein stability index: 2.62
- Mutant id: "K3Q"
  protein stability index: 2.33
- Mutant id: "M7C"
  protein stability index: 2.23
- Mutant id: "K3S"
  protein stability index: 2.73
- Mutant id: "K11Y"
  protein stability index: 2.39
- Mutant id: "M7S"
  protein stability index: 2.55
- Mutant id: "R5I"
  protein stability index: 2.44
- Mutant id: "M7P"
  protein stability index: 2.67
- Mutant id: "E19V"
  protein stability index: 1.67
- Mutant id: "R20E"
  protein stability index: 2.69
- Mutant id: "E10T"
  protein stability index: 1.87
- Mutant id: "R9F"
  protein stability index: 2.38
- Mutant id: "T2A"
  protein stability index: 2.69
- Mutant id: "A22M"
  protein stability index: 2.33
- Mutant id: "K3I"
  protein stability index: 2.08
- Mutant id: "C12F"
  protein stability index: 2.58
- Mutant id: "E10K"
  protein stability index: 2.03
- Mutant id: "L1T"
  protein stability index: 2.86
- Mutant id: "G8T"
  protein stability index: 2.95
- Mutant id: "Y24G"
  protein stability index: 2.67
- Mutant id: "R9P"
  protein stability index: 2.53
- Mutant id: "Q14D"
  protein stability index: 2.47
- Mutant id: "A18K"
  protein stability index: 2.48
- Mutant id: "Y24K"
  protein stability index: 3.02
- Mutant id: "T2Y"
  protein stability index: 1.97
- Mutant id: "Y24W"
  protein stability index: 2.46
- Mutant id: "C12M"
  protein stability index: 2.1
- Mutant id: "K11P"
  protein stability index: 2.6
- Mutant id: "L4G"
  protein stability index: 3.55
- Mutant id: "K3C"
  protein stability index: 2.34
- Mutant id: "Q14N"
  protein stability index: 2.64
- Mutant id: "Y15W"
  protein stability index: 1.99
- Mutant id: "C12N"
  protein stability index: 3.04
- Mutant id: "S21E"
  protein stability index: 2.15
- Mutant id: "R23S"
  protein stability index: 1.96
- Mutant id: "E6Q"
  protein stability index: 2.1
- Mutant id: "R20C"
  protein stability index: 2.42
- Mutant id: "L4A"
  protein stability index: 2.72
- Mutant id: "Q14G"
  protein stability index: 2.46
- Mutant id: "Y24N"
  protein stability index: 3.2
- Mutant id: "K3F"
  protein stability index: 2.4
- Mutant id: "W16Y"
  protein stability index: 2.58
- Mutant id: "K11M"
  protein stability index: 2.64
- Mutant id: "H13W"
  protein stability index: 1.77
- Mutant id: "A18L"
  protein stability index: 1.87
- Mutant id: "Y24D"
  protein stability index: 3.55
- Mutant id: "E10Y"
  protein stability index: 2.48
- Mutant id: "Y15F"
  protein stability index: 2.86
- Mutant id: "L1G"
  protein stability index: 2.47
- Mutant id: "Y15L"
  protein stability index: 2.46
- Mutant id: "E10N"
  protein stability index: 2.46
- Mutant id: "T2I"
  protein stability index: 2.22
- Mutant id: "H13A"
  protein stability index: 2.66
- Mutant id: "Y15A"
  protein stability index: 2.93
- Mutant id: "S21D"
  protein stability index: 2.83
- Mutant id: "A22N"
  protein stability index: 2.57
- Mutant id: "M7E"
  protein stability index: 3.25
- Mutant id: "Y24R"
  protein stability index: 2.7
- Mutant id: "R5N"
  protein stability index: 2.76
- Mutant id: "E6N"
  protein stability index: 1.8
- Mutant id: "K11I"
  protein stability index: 2.53
- Mutant id: "R23V"
  protein stability index: 1.85
- Mutant id: "Q14L"
  protein stability index: 2.5
- Mutant id: "E10R"
  protein stability index: 2.42
- Mutant id: "L4V"
  protein stability index: 2.48
- Mutant id: "W16Q"
  protein stability index: 3.26
- Mutant id: "W16E"
  protein stability index: 3.47
- Mutant id: "Y15I"
  protein stability index: 2.59
- Mutant id: "M7I"
  protein stability index: 2.54
- Mutant id: "T2V"
  protein stability index: 1.99
- Mutant id: "Q14T"
  protein stability index: 2.62
- Mutant id: "E10Q"
  protein stability index: 1.97
- Mutant id: "S21F"
  protein stability index: 2
- Mutant id: "W16C"
  protein stability index: 2.8
- Mutant id: "C12Y"
  protein stability index: 2.98
- Mutant id: "L4H"
  protein stability index: 2.84
- Mutant id: "Q14K"
  protein stability index: 2.48
- Mutant id: "A18T"
  protein stability index: 2.27
- Mutant id: "C12A"
  protein stability index: 3.2
- Mutant id: "E19D"
  protein stability index: 2.81
